- System: Staphylococcus aureus Terajima
- procedure details: Minimum inhibitory concentration, standard serial dilution method
- Format: cell-based
- protocol conditions: Staphylococcus aureus Terajima; Brain Heart Infusion broth, 37°C, 24 hours; read-out: Minimum Inhibitory Concentrations
experimental endpoint: MIC (µg/mL)
One number for each entry, in µg/mL.

CCC(=O)OC1CC(=O)OC(C)CC=CC=CC(OC(C)=O)C(C)CC(CC=O)C(OC2OC(C)C(OC3CC(C)(OCOC(C)=O)C(OC(=O)CC)C(C)O3)C(N(C)C)C2O)C1OC (stereo not shown) :: 3.13
CCC(=O)OCOC1(C)CC(OC2C(C)OC(OC3C(CC=O)CC(C)C(OC(=O)CC)C=CC=CCC(C)OC(=O)CC(OC(=O)CC)C3OC)C(O)C2N(C)C)OC(C)C1OC(=O)CC (stereo not shown) :: 3.13
CCC(=O)OCOC1(C)CC(OC2C(C)OC(OC3C(CC=O)CC(C)C(OC(C)=O)C=CC=CCC(C)OC(=O)CC(OC(=O)CC)C3OC)C(O)C2N(C)C)OC(C)C1OC(=O)CC (stereo not shown) :: 3.13

Lab book: MIC of CCC(=O)OC1C=CC=CCC(C)OC(=O)CC(OC(=O)CC)C(OC)C(OC2OC(C)C(OC3CC(C)(OCOC(C)=O)C(OC(=O)CC)C(C)O3)C(N(C)C)C2O)C(CC=O)CC1C (stereo not shown) noted as 3.13

---

- Tested on: Diplococcus pneumoniae Type III
- procedure details: Minimum inhibitory concentration, standard serial dilution method
- Format: cell-based
- protocol conditions: Streptococcus pneumoniae, Brain Heart Infusion broth, 37°C, 24 hours, read-out: Minimum Inhibitory Concentrations
Can you tell me MIC for the items I'm about to list?
One number for each entry, in µg/mL.

Before answering, review these 4 worked examples.
CCC(=O)OC1CC(=O)OC(C)CC=CC=CC(O)C(C)CC(CC=O)C(OC2OC(C)C(OC3CC(C)(O)C(OC(=O)CC)C(C)O3)C(N(C)C)C2O)C1OC (centres unmarked) [SF-837 (the free base), reference compound] :: 0.04
CCC(=O)OCOC1(C)CC(OC2C(C)OC(OC3C(CC=O)CC(C)C(OC(=O)CC)C=CC=CCC(C)OC(=O)CC(OC(=O)CC)C3OC)C(O)C2N(C)C)OC(C)C1OC(=O)CC (centres unmarked) :: 1.56
CCC(=O)OC1CC(=O)OC(C)CC=CC=CC(OC(C)=O)C(C)CC(CC=O)C(OC2OC(C)C(OC3CC(C)(OCOC(C)=O)C(OC(=O)CC)C(C)O3)C(N(C)C)C2O)C1OC (centres unmarked) [9-O-acetyl-3"-O-acetoxymethyl-SF-837] :: 1.56
CCC(=O)OC1C=CC=CCC(C)OC(=O)CC(OC(=O)CC)C(OC)C(OC2OC(C)C(OC3CC(C)(OCOC(C)=O)C(OC(=O)CC)C(C)O3)C(N(C)C)C2O)C(CC=O)CC1C (centres unmarked) [9-O-propionyl-3"-O-acetoxymethyl-SF-837] :: 1.56

Next item in the queue.
Query CCC(=O)OCOC1(C)CC(OC2C(C)OC(OC3C(CC=O)CC(C)C(OC(C)=O)C=CC=CCC(C)OC(=O)CC(OC(=O)CC)C3OC)C(O)C2N(C)C)OC(C)C1OC(=O)CC (centres unmarked) yields MIC of 1.56

---

I'd appreciate it if you could supply Rate of the sacrificed mice (average) values for the items below.
- System: mice
- procedure details: Acute toxicity in mice, intraperitoneal
- protocol conditions: 3,000 mg/kg intraperitoneally; one week after dosing; 3 mice per group

Worked cases, answers included:
CCC(=O)OCOC1(C)CC(OC2C(C)OC(OC3C(CC=O)CC(C)C(OC(C)=O)C=CC=CCC(C)OC(=O)CC(OC(=O)CC)C3OC)C(O)C2N(C)C)OC(C)C1OC(=O)CC (centres unmarked) :: 0/3
CCC(=O)OC1C=CC=CCC(C)OC(=O)CC(OC(=O)CC)C(OC)C(OC2OC(C)C(OC3CC(C)(OCOC(C)=O)C(OC(=O)CC)C(C)O3)C(N(C)C)C2O)C(CC=O)CC1C (centres unmarked) :: 0/3
CCC(=O)OCOC1(C)CC(OC2C(C)OC(OC3C(CC=O)CC(C)C(OC(=O)CC)C=CC=CCC(C)OC(=O)CC(OC(=O)CC)C3OC)C(O)C2N(C)C)OC(C)C1OC(=O)CC (centres unmarked) :: 0/3
CCC(=O)OC1CC(=O)OC(C)CC=CC=CC(O)C(C)CC(CC=O)C(OC2OC(C)C(OC3CC(C)(O)C(OC(=O)CC)C(C)O3)C(N(C)C)C2O)C1OC (centres unmarked) [SF-837 (the free base), reference compound] :: 3/3

Documented Rate of the sacrificed mice (average) of CCC(=O)OC1CC(=O)OC(C)CC=CC=CC(OC(C)=O)C(C)CC(CC=O)C(OC2OC(C)C(OC3CC(C)(OCOC(C)=O)C(OC(=O)CC)C(C)O3)C(N(C)C)C2O)C1OC (centres unmarked) : 0/3

---

Can you tell me Rate of Surviving Mice (in percentage) for the items I'm about to list?
- System: Staphylococcus aureus
- procedure details: Curative effect in therapeutic treatment of Staphylococcus aureus infections in mice
- protocol conditions: 400 mg/kg, oral, immediately after intraperitoneal inoculation; 7th day; 10 mice per group

CCC(=O)OCOC1(C)CC(OC2C(C)OC(OC3C(CC=O)CC(C)C(OC(=O)CC)C=CC=CCC(C)OC(=O)CC(OC(=O)CC)C3OC)C(O)C2N(C)C)OC(C)C1OC(=O)CC (stereo not shown) :: 100 percentage
CCC(=O)OCOC1(C)CC(OC2C(C)OC(OC3C(CC=O)CC(C)C(OC(C)=O)C=CC=CCC(C)OC(=O)CC(OC(=O)CC)C3OC)C(O)C2N(C)C)OC(C)C1OC(=O)CC (stereo not shown) :: 100 percentage
CCC(=O)OC1CC(=O)OC(C)CC=CC=CC(O)C(C)CC(CC=O)C(OC2OC(C)C(OC3CC(C)(O)C(OC(=O)CC)C(C)O3)C(N(C)C)C2O)C1OC (stereo not shown) [SF-837 (the free base), reference compound] :: 67 percentage

Alright, here's another compound for you.
For CCC(=O)OC1C=CC=CCC(C)OC(=O)CC(OC(=O)CC)C(OC)C(OC2OC(C)C(OC3CC(C)(OCOC(C)=O)C(OC(=O)CC)C(C)O3)C(N(C)C)C2O)C(CC=O)CC1C (stereo not shown) [9-O-propionyl-3"-O-acetoxymethyl-SF-837] on Staphylococcus aureus, measured Rate of Surviving Mice (in percentage) was 100 percentage
